This section presents variants with their documented self-cleavage kobs at 2500 uM GlcN6P values.
B1: glmS ribozyme (parent)
chain: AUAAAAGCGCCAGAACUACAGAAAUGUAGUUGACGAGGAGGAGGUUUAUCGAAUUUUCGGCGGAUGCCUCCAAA

Variants of: B1
Assay: self-cleavage kobs at 2500 uM GlcN6P; higher = faster cleavage; RNA array
Settings: with glucosamine-6-phosphate
Fewer inactive variants are shown than the library holds.

[
  {
    "Monomer sequence": "AUAAAAGAGCCAGAACUACAGAAAUGUAGUUGAAGAGGAGGAGGUUUAUCGAAUUUUCGGCGGAUGCCCCCAAA",
    "self-cleavage kobs at 2500 uM GlcN6P": "< 1e-05 s⁻¹"
  },
  {
    "Monomer sequence": "AUAAAAGCGCCACACCUACAGAAAUGUAGUUUACGAGGAGGAGAUUUAUCGAAUUUUCUGCGGAUGCCUCCAAA",
    "self-cleavage kobs at 2500 uM GlcN6P": "< 1e-05 s⁻¹"
  },
  {
    "Monomer sequence": "AUAAAAGCGCCAGAACUACAGAAAUGUAGUUGACGAAGCGGAGGUUUAUCGAAUUUUCCGCGGAUGCCUCCAAA",
    "self-cleavage kobs at 2500 uM GlcN6P": "< 1e-05 s⁻¹"
  },
  {
    "Monomer sequence": "AUAAAAGCGCCAGAUCUACAGAAAUGUAGUUGACGGGGUGGAGGUUUAUCGAAUUUUCGGCGGAUGCCUCCAAA",
    "self-cleavage kobs at 2500 uM GlcN6P": "< 1e-05 s⁻¹"
  },
  {
    "Monomer sequence": "AUAAAAGCGCCCGAACUACAGAAAUGUAGUUGACGAGGAGGAGGUUUAUCGAAUUUUCGGCGGAUUCCUACAAA",
    "self-cleavage kobs at 2500 uM GlcN6P": "0.000107 s⁻¹"
  },
  {
    "Monomer sequence": "AUAAAAGCGCCAGAACUACAGAAAUGUAUUUGACGAGGAGGAGGUUUAUCGAAUUUUCGGCGGAUGCCCCCAAA",
    "self-cleavage kobs at 2500 uM GlcN6P": "0.000114 s⁻¹"
  },
  {
    "Monomer sequence": "AUAAAAUCGCGAGAAGUACAGAAAUGUAGUUAACGAGGAGGAGGUUUAUCGAUUUUUCGGCGGAUGCCUCCAAA",
    "self-cleavage kobs at 2500 uM GlcN6P": "< 1e-05 s⁻¹"
  },
  {
    "Monomer sequence": "AUAAAAGCGCAAGCACUACAGAAAUGUAGUUGACAAGGAGGAGGUUUAUGGAAUUUUCGGCGGAUGCCUCGAAA",
    "self-cleavage kobs at 2500 uM GlcN6P": "0.000131 s⁻¹"
  },
  {
    "Monomer sequence": "AUAAAAUCGCCAGAACUACAGAAAUGUAGUUGACGAGGAGGAGGUUUAUCUAAUUUUCGGCGGAUGCCUCCAAA",
    "self-cleavage kobs at 2500 uM GlcN6P": "< 1e-05 s⁻¹"
  },
  {
    "Monomer sequence": "AUAAAAGCGCCAGAACUACAUAAAUGUAGUUGACGAGGAGGAGGUUUAUCGAAUUUUCGGCGGAUGCCUCGAAA",
    "self-cleavage kobs at 2500 uM GlcN6P": "0.000294 s⁻¹"
  },
  {
    "Monomer sequence": "AUAAAAGCGCCAAAACUACAGAAAUGUAGUUGACGAGGAGGAGGUUUAUCCAAUUUUCGGCGGAUGGCUCCAAA",
    "self-cleavage kobs at 2500 uM GlcN6P": "< 1e-05 s⁻¹"
  },
  {
    "Monomer sequence": "AUAAACGCGCCAGAACUACAGAAAUGUAGUUGACGACGAGGAGGUUUAUCGAAUUUUCGGCGGAAGCCUCCAAA",
    "self-cleavage kobs at 2500 uM GlcN6P": "< 1e-05 s⁻¹"
  },
  {
    "Monomer sequence": "AUAAAAGCGCCAGAACUACAGAAAUGUAGUUGACGGGGAGGAGGUUUAUCGAAUAUUCGGCGGAGGCCUCCAAA",
    "self-cleavage kobs at 2500 uM GlcN6P": "< 1e-05 s⁻¹"
  },
  {
    "Monomer sequence": "AUAAAAGAGCCAGAACUACAGAAAUGUAGUUGACGAGGAGGAGGUUUAUCGAAUAUUCGGCGGAUGCCUCUAAA",
    "self-cleavage kobs at 2500 uM GlcN6P": "< 1e-05 s⁻¹"
  },
  {
    "Monomer sequence": "AUAAAAGCGCCAGUACUACAGAAAUGUAGUUGACGAGGAAGAAGGUUAUCGAAUUUUCGGCGGAUGCCUCCAAA",
    "self-cleavage kobs at 2500 uM GlcN6P": "0.000402 s⁻¹"
  },
  {
    "Monomer sequence": "AUAAAAGCGCCAGAACUACAGAAAUGUAGUUGUCGAGGAGGAGGUUUAUCGAAUCUUCGCCGGAUGCCUCCAAA",
    "self-cleavage kobs at 2500 uM GlcN6P": "< 1e-05 s⁻¹"
  },
  {
    "Monomer sequence": "AUAAAAGCGCCACAACUACAGAAAUGUAGUUGACGCGGAGGAGGUUUAUCGAAUUUUCGGCGGAUGCCUCUAAA",
    "self-cleavage kobs at 2500 uM GlcN6P": "< 1e-05 s⁻¹"
  },
  {
    "Monomer sequence": "AUAAAAGGGGCAGAACUACAGAAAUGUAGUUGACGAGGCGGAGGUUUAUCGAAUUUUCGGCGGAUGCCUCCAAA",
    "self-cleavage kobs at 2500 uM GlcN6P": "< 1e-05 s⁻¹"
  },
  {
    "Monomer sequence": "AUAAAAGCGCGAGAGCUACAGAAAUGUAGUUGACGAGGCAGAGGUUUAUCGAAUUUUCGGCGGAUGCCUCCAAA",
    "self-cleavage kobs at 2500 uM GlcN6P": "< 1e-05 s⁻¹"
  },
  {
    "Monomer sequence": "AUAAAAGCGCCAGAACUACAGAAAUGUAGUUCCCGAGGAGGAGGUUUAUCGAAUUUUCGGCGUAUACCUCCAAA",
    "self-cleavage kobs at 2500 uM GlcN6P": "< 1e-05 s⁻¹"
  },
  {
    "Monomer sequence": "AUAAAAUUGCCAGAACUACAGAAAUGUAGUUGACCAGGAGGAGGUUUAUCGAAUUUUCGGCAGAUGCCUCCAAA",
    "self-cleavage kobs at 2500 uM GlcN6P": "< 1e-05 s⁻¹"
  },
  {
    "Monomer sequence": "AUAAACGCGCCAGAACUACAGAAAUGUAGUUGACGAGGAAGAGGUUUAUCGGAUUUUCGGCGGAUGUCUCCAAA",
    "self-cleavage kobs at 2500 uM GlcN6P": "< 1e-05 s⁻¹"
  }
]
